Reference for the values: the supplement of paper PMC9170038

tested on: K4 kissing-loop RNA reporter; experiment: apparent KD of K4 kissing-loop reporter; higher = weaker reporter binding; conditions: Eterna round: R107; input ligand: theophylline 20 uM;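 further: bound reporter read as fluorescence of individual clusters on recovered sequencing chips by microscopy, with normalized cluster intensities fitted with a binding model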
Use 0.2 µM as the dividing line for apparent KD of K4 kissing-loop reporter, with the line itself on the t side and lower values as f.

Sample answers from the record:
AAAUUCUUUUUUUUAUUUAAGUUUUCAGAAGGAGCGUGGUAGUACACAGGUAGGUCGCUGAAUUUUGGGCUAGUGAUGUUAGUUA [whbob_SS_Arginine_A_sa114] : f
UAUCUUUACUGAAGGAGCGAGCAUUUUGGAGUGAUGUUCCGAGCGAGUGAUGUUCGCAUAGCUCAGGUAGGUCGCAGUGGGAAAA [Same State Arginie B GF 15] : f
UUUAUAAAGUCGGCCGCCACUGGAUUUAUGUUUGUUUCGUCUGGAUCAAAGUGAUGUUUUGAGUCCAGGACCGGGACAUUUGUUA [whbob_Ex_Tryp_B_w38] : f

stdin: I'd appreciate it if you could say whether GAGGCCAGACGGAGUGAUGUUUCGUAUGAUACCAGCAGCGAAAGCUGCCCUUGGCAGCAUGCCACGGCCUCGGCGGGAAACCGCC has apparent KD of K4 kissing-loop reporter at least equal to 0.2 µM.
stdout: t

stdin: I'd appreciate it if you could say whether GUGCGGCUAGUGAUGUUGGUUGUGUGGGAAGGAGCGCAGAUUCAUGCAGGUAGGUCGCCCACACGUCUGAAAGGAUGAUAAUUCA [#12 K4 Arginine A Same State] has apparent KD of K4 kissing-loop reporter at least equal to 0.2 µM.
stdout: t

stdin: I'd appreciate it if you could say whether CCAUUCUUUUACGAUACCAGUCUAAUAUAUUGAAUCAAAACCCUCGCCGAGUGAUGUUCGGACCCUUGGCAGCGUCUGCGAGAGG [xwxxtkmullin] has apparent KD of K4 kissing-loop reporter at least equal to 0.2 µM.
stdout: t

stdin: I'd appreciate it if you could say whether CGAUCUGAUAGCAGUGAUGUUGCUACAGAUACCAGUCCAGAUCGAGACCCUUGGCAGCUGACCCGGCAUGUGCUAUGGUAGAUCG [Theo A Ex t1] has apparent KD of K4 kissing-loop reporter at least equal to 0.2 µM.
stdout: f

stdin: I'd appreciate it if you could say whether UUACUACCCAGUGAUGUUGGGUAGCGGCGGCGAGGACCGGUACGGCCGCCACUCGGCGCACGGGAGUGAUGUUCCUACCGUUAGG [Same state Tryptophan A GF 8] has apparent KD of K4 kissing-loop reporter at least equal to 0.2 µM.
stdout: t

---

test system: MS2 coat protein; assay: apparent KD of MS2 coat protein; designed switch direction (-1 OFF switch, 1 ON switch): 1; higher = weaker reporter binding; conditions: input ligand: none
Use 100 nM as the dividing line for apparent KD of MS2 coat protein, with the line itself on the true (1) side and lower values as false (0).

Sample answers from the record:
AAACACAUGAGGAUCACCCAUGUAGCGCCAUUGAGGCGCACAUAGGAUAUCCGGUCCAAAAGACCGGAGAAGGGUGAAAGAAAA [Soesen] (Eterna round: R96, puzzle: Same State NG 3) : true (1)
UAAUUAAGUCAAGGAUAUCACGUCGAAUAGACGUGAGAAGGUGAUUAAUACAUGAGGAUCACCCAUGUAAUACAUGAAUAAUUA [SSNG1/11-B1] (Eterna round: R96, puzzle: Same State NG 1) : false (0)
UUAUUAAUUACAUGAGGAUCACCCAUGUUUUUAUGUCAGAGACAGGAUAUAGAAGUCUCGUUUUACUAGAAGGGUCAUUAUAAG [JR_SSNG3_Sub015] (Eterna round: R96, puzzle: Same State NG 3) : false (0)

stdin: I'd appreciate it if you could say whether GCGUUUAACGUAGGAUAUCGACCUACAUGAGGAUCACCCAUGUCUUUGUAAAGUUUUUUUAAUUACGAGAAGGACGUUUUGCAU [JR_SSNG2_Sub071] (Eterna round: R96, puzzle: Same State NG 2) has apparent KD of MS2 coat protein at least equal to 100 nM.
stdout: true (1)

stdin: I'd appreciate it if you could say whether AAACGGGCUACAGGAUAUGCUCGAUAAACUUCAGUAGAAGGGUGGCCUUAUCAACGAACAUGAGGAUCACCCAUGUUCUACAAC [Dianrisole] (Eterna round: R96, puzzle: Same State NG 1) has apparent KD of MS2 coat protein at least equal to 100 nM.
stdout: true (1)

stdin: I'd appreciate it if you could say whether GCGAAAGCGGUAGGAUAUCUAGGAUAUGGGAAGGACUAAGUCUGGAGGUCACCUCACCCAGAAGGAGAGAAGGACACCGAAAGG [pwkr ssNG2 2FMN + F9.1] (Eterna round: R96, puzzle: Same State NG 2) has apparent KD of MS2 coat protein at least equal to 100 nM.
stdout: false (0)

stdin: I'd appreciate it if you could say whether AAAGAAAACGCAGGAUAUACCCGGGAAACCGAGGUAGAAGGGUGAACCAAAACAAAACUAAAUAACAUGAGGAUCACCCAUGUC [Biarzara] (Eterna round: R96, puzzle: Same State NG 1) has apparent KD of MS2 coat protein at least equal to 100 nM.
stdout: true (1)

stdin: I'd appreciate it if you could say whether GCGAAGAGGUAAGGAUAUGCAUGGCGUAGACAUGAGGAUCACCCAUGUAGGAGACGAAUUAGAAGGGAGAAGGUACCAGGACGC [AK SSNG2-V2-17.1] (Eterna round: R96, puzzle: Same State NG 2) has apparent KD of MS2 coat protein at least equal to 100 nM.
stdout: true (1)

stdin: I'd appreciate it if you could say whether GCCAUCGCAUGAGGAUAUGGCACCGUUUCGGUGCCAGAAGGCAUGUCAUAAGACAUGAGGAUCACCCAUGUAGUUAAGAUGGCA [JL Fiskers NG1ss - 33 mod 8] (Eterna round: R96, puzzle: Same State NG 1) has apparent KD of MS2 coat protein at least equal to 100 nM.
stdout: true (1)

stdin: I'd appreciate it if you could say whether UUGGUACAUGAGGAUCACCCAUGUGGGUCGGUCGCAGGAUAUGCCCGUGGGCGCUUGCGGGCAGAAGGGUGCCGUA [Same State1-X] (Eterna round: R96, puzzle: Same State 1) has apparent KD of MS2 coat protein at least equal to 100 nM.
stdout: true (1)

stdin: I'd appreciate it if you could say whether AACCGCGCAGAUGCGCGACAUGAGGAUCACCCAUGUGGCACACAGGAUAUCCUGAACAGCUAUUAGGAGAAGGGUGAAGGCCUC [Oredceti] (Eterna round: R96, puzzle: Same State NG 3) has apparent KD of MS2 coat protein at least equal to 100 nM.
stdout: true (1)
